These measurements were taken from patent US20250002563A1.

# target: RBDSARS-CoV-2 (SARS-CoV-2 S protein residues 319-539, C-terminal His-tag) (SARS-CoV-2, UniProt P0DTC2 319-539)
# test description: ELISA
pIC50: −log10 of the molar value.
reported metric: pIC50

Previously resolved entries follow.
binder	pIC50
5p-5 (VHH) VHH: QVQLVESGGGLVQAGGSLRLSCAVSGRTGNRWPMGWFRQAPGKEREFVATISWSDSRTYYADSVKGRFTISRDNAKNTVFLQMASLKPEDTAVYYCAAATARVYGANWSSSNRDDYDSWGQGTQVTVSS	7.00 to 8.00
5p-4 (VHH) VHH: QVQLVESGGGLVQAGASLRLSCAASGRTFTNSHMGWFRQAPGKERDFVAVISRSGGSTLYADSVKGRFTISRDNAKNTVYLQMNTMKPEDTAVYYCAGARTAGLTSNPSLYDYWGQGTQVTVSS	> 8.00
5p-34 (VHH) VHH: QVQLVESGGGLVQAGGSLRLSCTASGRTFSRYAAGWFRQAPGKEREFVAVIEWNGDSAYYTDSAKGRFTISRDNTKNTVYLQMNRLKPEDTAVYICAIGGNHYSPSKYYIADEYDYWGQGTQVTVSS	> 8.00

Now for another entry.
Ask: Given the entry 5p-60 (VHH, class II(A) psNb) VHH: QVQLVESGGGLVQAGGSLRLSCAVSGRTISTFGMGWFRQAPGKEREFVATITRDEDMLLYADSVKGRFTISRDTAKNMVFLQMNSLKIEDTALYYCAVRRDSSWGYSRQSTEYDYWGQGTQVTVSS , report its measured pIC50.
Result: > 8.00
